Test system: Staphylococcus aureus
ASSAY_NAME: Increase in 5 ug levofloxacin antibacterial activity against Staphylococcus aureus SA1199B mutant overexpressing NorA at 128 ug/ml by disk diffusion method
Assay type: functional
MEASUREMENT_NAME: inhibition zone (IZ) (mm)
Supply the numeric figure in mm, leaving out any unit text.

Lookup: If you can, please state the reported inhibition zone (IZ) value of COC(=O)[C@H]1[C@H]2C[C@@H]3c4[nH]c5cc(OC)ccc5c4CCN3C[C@H]2C[C@@H](OC(=O)c2cc(OC)c(OC)c(OC)c2)[C@@H]1OC .
Found: 24

Lookup: And then COc1ccc2c(c1)nc([S+]([O-])Cc1nc3ccccc3n3cccc13)c1cccn12 (centres undefined) , what is it?
Found: 22

Lookup: # repeat for COc1ccc2c(c1)nc(C[S+]([O-])c1nc3ccccc3[nH]1)c1cccn12 (centres undefined)
Found: 24

Lookup: Cn1c([S+]([O-])Cc2nc3ccccc3n3cccc23)nc2ccccc21 (centres undefined) ?
Found: 23

Lookup: Next: COc1ccc2[nH]c([S+]([O-])Cc3nc4ccc(Cl)cc4n4cccc34)nc2c1 (centres undefined)
Found: 23

Lookup: Same question, [O-][S+](Cc1nc2ccccc2n2cccc12)c1ccccn1 (centres undefined) this time
Found: 22

Lookup: Try this compound too: COc1ccc2[nH]c([S+]([O-])Cc3nc4ccccc4n4cccc34)nc2c1 (centres undefined)
Found: 24

Lookup: // repeat for [O-][S+](Cc1nc2ccccc2n2cccc12)c1ncc[nH]1 (centres undefined) and report
Found: 22

Lookup: Next entry: COc1ccc2[nH]c([S+]([O-])Cc3nc4cc(Cl)ccc4n4cccc34)nc2c1 (centres undefined)
Found: 27

* * *

Test system: Staphylococcus aureus
ASSAY_NAME: Increase in 5 ug moxifloxacin antibacterial activity against Staphylococcus aureus SA1199B mutant overexpressing NorA at 128 ug/ml by disk diffusion method
Format: functional
Kindly state inhibition zone (IZ) for each of the entries shown.
Hi! Could you send only the number? It should be in mm, unit omitted.

Lookup: So what inhibition zone (IZ) did Cn1c([S+]([O-])Cc2nc3ccccc3n3cccc23)nc2ccccc21 (stereo not drawn) get with Staphylococcus aureus?
Found: 27

Lookup: Then what about the compound [O-][S+](Cc1nc2ccccc2n2cccc12)c1nc2ccccc2[nH]1 (stereo not drawn) ?
Found: 28

Lookup: // query: COc1ccc2c(c1)nc([S+]([O-])Cc1nc3ccccc3n3cccc13)c1cccn12 (stereo not drawn)
Found: 27

Lookup: For Cn1ccnc1[S+]([O-])Cc1nc2ccccc2n2cccc12 (stereo not drawn) then?
Found: 27

Lookup: Next compound: COc1ccc2[nH]c([S+]([O-])Cc3ncc(C)c(OC)c3C)nc2c1 (stereo not drawn) [OMEPRAZOLE]
Found: 30

Lookup: Let us now turn to COc1ccc2[nH]c([S+]([O-])Cc3nc4ccccc4n4cccc34)nc2c1 (stereo not drawn)
Found: 28

Lookup: Entry to check: COc1ccc2[nH]c([S+]([O-])Cc3nc4cc(Cl)ccc4n4cccc34)nc2c1 (stereo not drawn)
Found: 28

Lookup: Queued: COC(=O)[C@H]1[C@H]2C[C@@H]3c4[nH]c5cc(OC)ccc5c4CCN3C[C@H]2C[C@@H](OC(=O)c2cc(OC)c(OC)c(OC)c2)[C@@H]1OC [RESERPINE]
Found: 28

Lookup: Another: [O-][S+](Cc1nc2ccccc2n2cccc12)c1ncc[nH]1 (stereo not drawn)
Found: 27

Lookup: What do we get for [O-][S+](Cc1nc2ccccc2n2cccc12)c1ccccn1 (stereo not drawn) ?
Found: 27

Lookup: Now try COc1ccc2c(c1)nc(C[S+]([O-])c1nc3ccccc3[nH]1)c1cccn12 (stereo not drawn) .
Found: 28

Lookup: Request: COc1ccc2[nH]c([S+]([O-])Cc3nc4cc(OC)ccc4n4cccc34)nc2c1 (stereo not drawn)
Found: 28

Lookup: Request: COc1ccc2[nH]c([S+]([O-])Cc3nc4ccc(Cl)cc4n4cccc34)nc2c1 (stereo not drawn)
Found: 27
